Provenance of the data: ChEMBL document CHEMBL2146414

Biological target: Prostaglandin G/H synthase 1 (Ovis aries, UniProt P05979)
Sequence (P05979 whole entry): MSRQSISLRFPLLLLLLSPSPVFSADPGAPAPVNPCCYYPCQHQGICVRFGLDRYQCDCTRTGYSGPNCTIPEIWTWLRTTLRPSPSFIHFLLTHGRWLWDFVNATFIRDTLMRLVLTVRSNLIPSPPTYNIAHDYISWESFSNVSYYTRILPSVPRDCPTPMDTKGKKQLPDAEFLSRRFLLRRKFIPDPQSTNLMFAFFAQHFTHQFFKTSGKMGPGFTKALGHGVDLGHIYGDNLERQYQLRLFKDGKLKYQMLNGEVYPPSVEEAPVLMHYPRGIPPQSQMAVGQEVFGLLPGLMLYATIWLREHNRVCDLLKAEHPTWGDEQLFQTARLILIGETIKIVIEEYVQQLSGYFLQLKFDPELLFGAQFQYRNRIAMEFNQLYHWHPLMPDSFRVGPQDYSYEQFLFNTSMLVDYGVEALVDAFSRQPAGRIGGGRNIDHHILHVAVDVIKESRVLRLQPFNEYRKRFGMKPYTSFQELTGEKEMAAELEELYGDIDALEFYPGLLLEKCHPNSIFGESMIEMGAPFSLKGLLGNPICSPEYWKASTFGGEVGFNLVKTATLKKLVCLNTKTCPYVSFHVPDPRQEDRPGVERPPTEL
Assay: Inhibition of ram seminal vesicle COX1 assessed as PGE2 production by enzyme immunoassay
ASSAY_ENDPOINT: IC50

Consider the reported IC50 for these compounds:
1) COc1cc(O)ccc1-c1cc2cc(CCCO)ccc2o1
> 50 µM
2) C[C@@H]1[C@H](C)[C@@H](c2ccc(O)cc2)O[C@@H]1c1ccc(O)cc1
> 50 µM
3) C[C@@H]1[C@H](C)[C@@H](c2ccc(O)cc2)O[C@H]1c1ccc(O)cc1
> 50 µM

Turning to the following compound.
Problem: Please look up its IC50: C/C=C/c1ccc2oc(-c3ccc(O)cc3)c(C)c2c1
Solution: 3 µM

----------
Molecular target: UniProt:O14684
Sequence (O14684 whole entry): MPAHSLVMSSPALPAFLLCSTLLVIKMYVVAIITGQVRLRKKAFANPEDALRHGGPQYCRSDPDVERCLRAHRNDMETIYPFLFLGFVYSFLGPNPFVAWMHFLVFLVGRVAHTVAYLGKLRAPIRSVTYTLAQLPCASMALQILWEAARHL
Experiment: Inhibition of mPGES1 in IL-1beta treated human A549 cell microsomal membrane assessed as inhibition of PGE2 formation incubated for 15 mins before addition of PGH2 by RP-HPLC method
YES if IC50 is below 10 µM. NO if not; exact matches included in NO.

Consider the worked cases shown below.
1. C[C@@H]1[C@H](C)[C@@H](c2ccc(O)cc2)O[C@@H]1c1ccc(O)cc1
NO
2. C/C=C/c1ccc2c(c1)[C@H](CO)[C@@H](c1ccc(O)cc1)O2
NO
3. C/C=C/c1ccc2oc(-c3ccc(O)cc3)cc2c1
YES

Problem: Report whether reported IC50 is lower than 10 µM (strictly) for C/C=C/c1ccc2oc(-c3ccc(O)cc3OC)cc2c1 [RATANIAPHENOL III]
Solution: NO

Problem: Report whether reported IC50 is lower than 10 µM (strictly) for C/C=C/c1ccc2oc(-c3ccc(O)cc3O)cc2c1
Solution: YES

Problem: Report whether reported IC50 is lower than 10 µM (strictly) for C[C@@H]1[C@H](C)[C@@H](c2ccc(O)cc2)O[C@H]1c1ccc(O)cc1
Solution: NO

----------
Listing: ID50 of selected molecules
System: Mus musculus
Test: Antiinflammatory activity in CD1 mouse ear dermatitis model assessed as inhibition of Croton oil-induced ear edema administered topically per cm'2 of ear measured after induction of dermatitis relative to untreated control
Type: functional
Give the number; umol/cm2 is assumed, so skip it.

Consider the reported ID50 for these molecules:
1. C/C=C/c1ccc2oc(-c3ccc(O)cc3)cc2c1
0.44
2. COc1ccc(-c2cc3cc(CCCO)ccc3o2)c(O)c1
0.36
3. COc1cc(O)ccc1-c1cc2cc(CCCO)ccc2o1
0.45
4. C[C@@H]1[C@H](C)[C@@H](c2ccc(O)cc2)O[C@H]1c1ccc(O)cc1
0.36
5. C/C=C/c1ccc2oc(-c3ccc(O)cc3)c(C)c2c1 [RATANIAPHENOL II]
0.4

Problem: Please look up its ID50: C/C=C/c1ccc2oc(-c3ccc(O)cc3OC)cc2c1 [RATANIAPHENOL III]
Solution: 0.48

Problem: Please look up its ID50: C/C=C/c1ccc2c(c1)[C@H](CO)[C@@H](c1ccc(O)cc1)O2
Solution: 0.42

Problem: Please look up its ID50: C/C=C/c1ccc2oc(-c3ccc(OC)cc3O)cc2c1 [RATANIAPHENOL I]
Solution: 0.57

Problem: Please look up its ID50: C[C@@H]1[C@H](C)[C@@H](c2ccc(O)cc2)O[C@@H]1c1ccc(O)cc1
Solution: 0.46

Problem: Please look up its ID50: C[C@]12CCC(=O)C=C1CC[C@@H]1[C@@H]2[C@@H](O)C[C@@]2(C)[C@H]1CC[C@]2(O)C(=O)CO [HYDROCORTISONE]
Solution: 0.03

Problem: Please look up its ID50: COc1ccc2c(c1)c(CC(=O)O)c(C)n2C(=O)c1ccc(Cl)cc1 [INDOMETHACIN]
Solution: 0.29

Problem: Please look up its ID50: C/C=C/c1ccc2oc(-c3ccc(O)cc3O)cc2c1
Solution: 0.6
